assay: physchem
Endpoint Name: pKa
Please give the numeric answer without any surrounding text.

input: # get_value(readout='pKa', item= CC1(C)S[C@@H]2[C@H](NC(=O)[C@H](N)c3ccc(O)cc3)C(=O)N2[C@H]1C(=O)O )
output: 4.03

input: Any idea what its pKa is? The compound is Cc1ccc2c(c1)c(Sc1ccc(Cl)cc1)c(C)n2CC(=O)O
output: 4.1

====

assay: physchem; details: octan-1-ol/water, pH 7.4
Endpoint Name: logD
Number only, no unit.

Molecule | Endpoint Name | Obs Value
O=C(O)c1ccccc1Nc1cccc(C(F)(F)F)c1 [FLUFENAMIC ACID] | logD | 2.01

input: For the molecule shown here, C=C1C[C@@H]2[C@H](CC[C@]3(C)C(=O)CC[C@@H]23)[C@@]2(C)C=CC(=O)C=C12 [EXEMESTANE] , give the reported logD.
output: 2.98

input: logD lookup needed for CC1(C)CC(=O)c2c(nc3ccccc3c2N)C1 , thanks.
output: 3

input: Fill in: logD of CCOC(=O)Nc1cccc([C@@H](c2ccc(C(=O)N3CCC3)cc2)N2CCN(Cc3cccnc3)CC2)c1 is ___
output: 3.02

input: What value of logD has been recorded for this entry: NC(=O)c1cccc(O[C@@H]2C[C@H]3CC[C@@H](C2)N3CCc2ccccc2)c1
output: 2

====

Overview of recorded hepatocyte CLint for various molecules
assay: in vitro; conditions: hepatocytes

Worked cases, answers included:
Structure String | hepatocyte CLint
CCNC(=O)c1ccc(C)c(-n2cnc3ccc(N4CCN(C)CC4)cc3c2=O)c1 | < 3 µL/min/1e6 cells
Cn1c(=O)c(Oc2ccc(F)cc2F)cc2cnc(NC(CCO)CCO)nc21 | < 3 µL/min/1e6 cells
CCn1c(SCC(=O)Nc2cccc(C)c2)nnc1-c1ccccc1 | > 150 µL/min/1e6 cells

// next item, hepatocyte CLint requested
input: # lookup: hepatocyte CLint of O=C(Nc1cc(-c2ccncc2)c[nH]c1=O)[C@H](Cc1ccccc1)NC1(c2ccccn2)CC1
output: > 150 µL/min/1e6 cells

====

Property: fraction unbound at 5 h; scope: individual compounds
assay: in vitro; conditions: SD, HW or BN, rat, plasma
The reply should be a number, written without any unit.

Example entries and their recorded answers appear below.
Compound | fraction unbound at 5 h
COc1cc(Nc2nc3c(c(COC4CCCC4)n2)COCC3)ccc1-n1cnc(C)c1 | 0.0205
CC(C(=O)O[C@@H]1CC[N+](C)(C)C1)(c1ccccc1)C1CCCC1 (some centres not stated) | 0.299
N#Cc1cc(S(=O)(=O)Nc2ncc(Cl)s2)ccc1Oc1ccc(Cl)cc1-c1ccnn1C1CNC1 | 0.0142
CCCn1c(=O)[nH]c(=O)c2[nH]cnc21 | 0.212
N#C[C@@]1(NC(=O)[C@@H](N)Cc2cccs2)C[C@@H]1c1ccccc1 | 0.344

input: # get_value(readout='fraction unbound at 5 h', item= CC(C)(C)OC(=O)NC[C@H]1CC[C@H](CNC(=O)c2cc(N3CCC(CCO)CC3)nc3ccccc23)CC1 )
output: 0.0099

input: If you can, please state the reported fraction unbound at 5 h value of Cc1ccsc1C(=CCCN1CCC[C@@H](C(=O)O)C1)c1sccc1C .
output: 0.0836

input: Look at this compound and give its reported fraction unbound at 5 h. CN(C)CCOC1CN(c2cc(C(=O)NC[C@H]3CC[C@H](CNC(=O)OC(C)(C)C)CC3)c3ccccc3n2)C1
output: 0.129

input: # get_value(readout='fraction unbound at 5 h', item= O=c1cc(OCc2ccccc2)ccn1-c1ccc2c(cnn2CCN2CCCC2)c1 )
output: 0.119

input: Recorded fraction unbound at 5 h for O=C(Nc1cccc(Cl)c1)c1ccccn1 , please?
output: 0.0488

input: Returns the measured fraction unbound at 5 h for the input compound. Input: C[C@@H]1CN(C(=O)[C@@H]2CN(C(C)(C)C)C[C@H]2c2ccc(F)cc2F)C[C@H](C)[C@@]1(O)c1ccccc1
output: 0.19

input: I am curious: what fraction unbound at 5 h value has been reported for CN1CCN(C2=Nc3cc(Cl)ccc3Nc3ccccc32)CC1 ?
output: 0.0647
